Listed here: items and their measured EC50, CreLuc reporter, 100% hP.
- target_desc: T1, human neuropeptide Y2 receptor (human, UniProt P49146 1-381)
- T1 sequence (looked up): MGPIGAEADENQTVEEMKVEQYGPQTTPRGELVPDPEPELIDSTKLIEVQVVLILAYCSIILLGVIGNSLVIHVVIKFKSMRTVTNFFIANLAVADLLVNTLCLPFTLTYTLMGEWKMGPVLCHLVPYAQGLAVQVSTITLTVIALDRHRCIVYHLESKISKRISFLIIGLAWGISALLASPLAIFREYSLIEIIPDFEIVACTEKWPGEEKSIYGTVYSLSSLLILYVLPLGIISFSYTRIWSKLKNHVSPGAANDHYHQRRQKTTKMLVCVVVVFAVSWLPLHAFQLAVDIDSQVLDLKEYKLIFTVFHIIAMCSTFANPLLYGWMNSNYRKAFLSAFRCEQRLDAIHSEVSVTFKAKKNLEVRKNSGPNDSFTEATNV
- measurement_description: cell-based or functional assay
*1 amine or outer side, *2 acyl side, *3 side chain or, on linkers, in order; H or OH if unused. Where no end group is shown, it is not given here. Side-chain parts run from the residue outwards. [ ]: non-standard residue; d: D form. The star is where a group is joined. C20 diacid = O=C(O)CCCCCCCCCCCCCCCCCCC(=O)*; γGlu = O=C(O)[C@H](CCC(=O)[*:2])N[*:1]; AEEA = NCCOCCOCC(=O)O; Aib = CC(C)(N)C(=O)O

binder	measure_unit	EC50, CreLuc reporter, 100% hP
YXEGTFTSDYSIXLEKQAQXAFVRHLINKXTRQRX (Aib at 2, 13, 20, 30; Phe4F at 35; Lys29 epsilon-amino: C18DA-gGlu-gGlu-gGlu-gGlu-gGlu-gGlu-eLys; C-terminal amide) [Compound 86]	nM	162
YXEGTFTSDYSIXLEKQAQEAFVRHLINKXTRQRY (Aib at 2, 13, 30; Lys29 epsilon-amino: C18DA-gGlu-gGlu-gGlu-gGlu-gGlu-gGlu-eLys; C-terminal amide) [Compound 170]	nM	244
YXEGTFTSDYSIELEKQAQXAFVRHLINKXTRQRY (Aib at 2, 20, 30; Lys29 epsilon-amino: C18DA-gGlu-gGlu-gGlu-gGlu-gGlu-gGlu-eLys; C-terminal amide) [Compound 160]	nM	28.5
YXEGTFTSDYSIXLEKQAQXAFIRHLINKXTRQRY (Aib at 2, 13, 20, 30; Lys29 epsilon-amino: C18DA-gGlu-gGlu-gGlu-gGlu-gGlu-gGlu-eLys; C-terminal amide) [Compound 88]	nM	30.9
Y[Aib]EGTFTSDYSI[Aib]LEKQAQ[Aib]AFVRHLINK([AEEA-γGlu-γGlu-γGlu-γGlu-γGlu-γGlu-C20 diacid])[Aib]TRQRY-NH2 [Compound 99]	nM	125
YXEGTFTSDYSIXLEKQAQXAFVRHLINKLTRQRY (Aib at 2, 13, 20; Lys29 epsilon-amino: C18DA-gGlu-gGlu-gGlu-gGlu-gGlu; C-terminal amide) [Compound 158]	nM	149
